From: patent US5643927A

# ASSAY TEXT: catalepsy in rats after oral administration (extrapyramidal effects)
# Assay type: in vivo
# CONDITION DESCRIPTION: rat, in vivo, po

# COMPOUND, TD50, mg/kg
measured = [
    ("Cl.O=C(c1ccc(F)cc1)C1CCN(CCCOc2ccc3c(=O)c(CO)coc3c2)CC1 [Example 4]", 15),
]

---

# EXPERIMENTAL SYSTEM: D3 receptors (Homo sapiens)
# Construct: purchased RBI; host or cells: mouse fibroblasts (CCL 1,3)
# Sequence (P35462 whole entry): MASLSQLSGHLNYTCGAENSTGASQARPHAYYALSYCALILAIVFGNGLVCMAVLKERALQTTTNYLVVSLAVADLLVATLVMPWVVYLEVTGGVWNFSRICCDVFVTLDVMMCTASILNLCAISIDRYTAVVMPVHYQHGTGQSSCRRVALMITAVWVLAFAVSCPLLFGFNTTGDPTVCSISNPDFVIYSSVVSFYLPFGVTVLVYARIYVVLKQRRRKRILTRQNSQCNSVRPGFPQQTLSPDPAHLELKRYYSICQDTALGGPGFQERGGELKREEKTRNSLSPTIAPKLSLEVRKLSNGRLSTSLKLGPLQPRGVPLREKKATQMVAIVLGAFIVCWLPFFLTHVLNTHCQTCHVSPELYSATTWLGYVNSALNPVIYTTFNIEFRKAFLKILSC
# ASSAY TEXT: biochemical
# Format: binding
Where a name gives a salt, the structure may show the parent alone.

# COMPOUND, READING UNIT, IC50
data = [
    ("Cc1coc2cc(OCCCN3CCC(C(=O)c4ccc(F)cc4)CC3)ccc2c1=O [Example 3, hydrochloride]", "nM", 194),
]
